Molecular target: T1, MBP-USF2 E244K (Homo sapiens, UniProt Q15853 235-346, E244K)
T1 sequence: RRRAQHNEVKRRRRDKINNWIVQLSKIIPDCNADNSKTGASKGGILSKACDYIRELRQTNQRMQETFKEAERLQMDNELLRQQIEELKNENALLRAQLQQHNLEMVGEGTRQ
Experiment: fluorescence anisotropy; FA: 20 nM FAM-DNA, 20 mM Tris pH 8.0, 50 mM KCl, 2 mM MgCl2, 0.5% glycerol, 4 C, 3 h; EMSA: 100 nM Cy3-DNA, 10 mM Tris pH 8.0, 50 mM KCl, 1 mM DTT, 2 mM MgCl2
Details: protein: recombinant; tags: 6xHis-MBP N-terminal; chain copies: 2; label: 5'-FAM on strand 1; blunt as printed if S3 is read 3'-5' (printed with 5'-3' labels)
assayEndpoint: Kd (nM)

binder="FAM E-box DNA (dsDNA) DNA 1: GACGGGCACGTGACGCGC DNA 2: GCGCGTCACGTGCCCGTC" resultunit=nM reportedresult=290
